target: Human recombinant SHP2 (Homo sapiens, UniProt Q06124); assay: PTP activity assay (pNPP), SHP2; details: triplicate; read-out: SHP-2 IC50
Sequence (Q06124 whole entry): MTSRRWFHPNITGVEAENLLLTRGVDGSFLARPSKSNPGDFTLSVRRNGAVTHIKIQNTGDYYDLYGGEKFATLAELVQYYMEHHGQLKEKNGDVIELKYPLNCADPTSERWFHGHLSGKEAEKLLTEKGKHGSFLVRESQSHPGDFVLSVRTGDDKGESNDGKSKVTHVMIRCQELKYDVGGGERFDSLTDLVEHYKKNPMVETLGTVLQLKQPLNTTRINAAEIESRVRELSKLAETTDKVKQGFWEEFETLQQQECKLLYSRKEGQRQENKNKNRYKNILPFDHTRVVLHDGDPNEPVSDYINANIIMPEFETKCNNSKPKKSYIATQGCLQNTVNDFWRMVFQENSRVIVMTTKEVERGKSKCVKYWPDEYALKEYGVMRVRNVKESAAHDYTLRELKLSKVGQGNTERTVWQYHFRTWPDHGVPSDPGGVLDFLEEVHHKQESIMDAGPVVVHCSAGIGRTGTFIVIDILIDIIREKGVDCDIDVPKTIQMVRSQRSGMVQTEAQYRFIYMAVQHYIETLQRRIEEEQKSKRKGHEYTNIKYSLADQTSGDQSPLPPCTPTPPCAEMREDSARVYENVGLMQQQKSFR
pIC50: −log10 of the molar value.
TEST READOUT: pIC50

Given CCOC(=O)c1cc(OC(C)=O)c2c(c1)oc1cc(F)c(C(C)C)cc12 , state its recorded pIC50.
< 4.30

Given COC(=O)c1cc(O)c2c(c1)oc1cc(F)c(C(C)C)cc12 , state its recorded pIC50.
< 4.30

Given CCCCCCOc1cc(C(=O)OCC2CC2)cc2oc3cc(F)c(C(C)C)cc3c12 [Compound 11a] , state its recorded pIC50.
< 4.30

meta.source: paper PMC5503546
